system: UACC-257 melanoma; assay: NCI tumour cell line growth inhibition, 48 h
parameter: GI50

// worked examples, GI50 included
INSERT INTO assay_data (compound, parameter, result) VALUES
  ('O=C(c1ccncc1)N1CCN(C2=NS(=O)(=O)c3ccccc3N2c2ccccc2)CC1', 'GI50', '21.7 µM'),
  ('CCCN(CCC)c1ccc(/C=N/NC(=O)c2cccnc2)cc1', 'GI50', '31 µM'),
  ('C=CCCC(O)c1ccc(CCCCCCCCCCC)o1 (stereo not given)', 'GI50', '18.6 µM'),
  ('O=C(O)CP(=O)(c1ccccc1)c1ccccc1.O=C(O)CP(=O)(c1ccccc1)c1ccccc1.[Cd]', 'GI50', '15.4 µM');

Batch request: GI50 per item, same order as input.
1. O=C(Nc1cccc(-n2cc(-c3ccncc3)c(-c3ccc(O)c(Cl)c3)n2)c1)c1ccc(N2CCOCC2)c(C(F)(F)F)c1
2. Nc1ncnc2c1c(C(=O)NO)cn2C1OC(CO)C(O)C1O (stereo not given)
3. CC(=O)Nc1ccc(S(=O)(=O)c2ccc(NC(C)=O)cc2)cc1

Solution:
1: > 50 µM; 2: 0.522 µM; 3: > 100 µM

// data source = PubChem BioAssay (NCI)
